Reported PBM binding z-score values for a set of sequences
System: PPARg homodimer (NR concentration 180 nM)
Assay: PBM binding z-score (relative to random genomic background probes); higher = stronger binding; sequences stand for … in GC…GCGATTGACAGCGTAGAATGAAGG

{"macromolecule.sequence": "GATGCAGGGTCAGCTAGAGGCCAGAGTATGGAAA", "PBM binding z-score": 2.73}
{"macromolecule.sequence": "GCAGACAGGTGAAACGCAGGTAACCCAGGGTGGC", "PBM binding z-score": -0.777}
{"macromolecule.sequence": "ATATGTAGGTTCAGGGTCATTCAGGTTGGTTCGC", "PBM binding z-score": 3.72}
{"macromolecule.sequence": "ATCTCTAGGTAAGACACAGTTCAGTGAAGAACGC", "PBM binding z-score": 1.82}
{"macromolecule.sequence": "ATCTCTAGGTAACGTTCAGTGAAAGATCGATAGA", "PBM binding z-score": 0.504}

* * *

Test system: PPARg:RXRa IVT, anti-PPARg (NR concentration 270 nM, RXRa partner concentration 90 nM)
Assay: PBM binding z-score (relative to random genomic background probes); higher = stronger binding; sequences stand for … in GC…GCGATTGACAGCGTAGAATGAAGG
Respond with condition met for PBM binding z-score values of 0.8 and above, condition not met for values below.

{"macromolecule.sequence": "AGAACGAGGGCACGCTGAGGTGATAGCAGAGTAG", "discrete.label": "condition met"}
{"macromolecule.sequence": "TGAATGAGGTTATCAGATCAGGGAACGTTGCAAA", "discrete.label": "condition met"}
{"macromolecule.sequence": "CCTATTACTTGACCATAAGGGCAACCGAAGCTCG", "discrete.label": "condition met"}
{"macromolecule.sequence": "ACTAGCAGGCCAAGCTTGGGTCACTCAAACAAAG", "discrete.label": "condition not met"}
{"macromolecule.sequence": "TCTTGTAGATCAACAGGAGTTTAAGAAAGATCGA", "discrete.label": "condition not met"}
{"macromolecule.sequence": "GCGACTGGGGCATAGCAGGTTACCATAAGGTTGG", "discrete.label": "condition met"}
{"macromolecule.sequence": "TCGAGTAGGTTACCAATGGGGCATTCAGCTTTCT", "discrete.label": "condition met"}
{"macromolecule.sequence": "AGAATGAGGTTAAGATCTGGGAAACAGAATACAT", "discrete.label": "condition met"}
{"macromolecule.sequence": "TAGCCTAGGTCTGATCGGGCCAGTATACGCTATA", "discrete.label": "condition not met"}
{"macromolecule.sequence": "CCTTACGGGTCACTCCAGGTTAAAGCATCGGAGT", "discrete.label": "condition met"}
{"macromolecule.sequence": "ATATGTAGGTTAGCTGGGGTGATTCAGACTAGGC", "discrete.label": "condition met"}
{"macromolecule.sequence": "ACTAGCAGGCCAAGGGTCACTCGAGATTAGTCCG", "discrete.label": "condition met"}
{"macromolecule.sequence": "GCTGCTAGGTCAAGTTGGTCAGCTAACGGGTACG", "discrete.label": "condition met"}
{"macromolecule.sequence": "CGTCCAAGGTCAGAGAGGTCAGTGCATGCCGAGT", "discrete.label": "condition met"}
{"macromolecule.sequence": "GGAACGAGGGCAAGTAGATAGCAGAGTTTGATGG", "discrete.label": "condition met"}
{"macromolecule.sequence": "CCTAGCAGGCCAATCTGGGCCACTCAAGGCTTGA", "discrete.label": "condition met"}
{"macromolecule.sequence": "TCTAGTTGGTCACGGAGGTCACATACGACGGGTA", "discrete.label": "condition met"}
{"macromolecule.sequence": "TCTCGGAGGACAAGAAGGTCAGAGCTTTCCAGAG", "discrete.label": "condition met"}

* * *

Reported PBM binding z-score values for a set of sequences
System: RARa homodimer (NR concentration 270 nM)
Assay: PBM binding z-score (relative to random genomic background probes); higher = stronger binding; sequences stand for … in GC…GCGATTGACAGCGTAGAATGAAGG
outcome.measure: PBM binding z-score

{"macromolecule.sequence": "CCTCGGAGGACAGAAGCTCAGAGCTGTCCGCTTT", "measured.value": -0.553}
{"macromolecule.sequence": "GCTTGCGGGTCAAAGGTTATAGCATGAATAGAAT", "measured.value": 0.537}
{"macromolecule.sequence": "ACTCAGAGGACAAAGGTCAGAGCTACGCCAGTGA", "measured.value": 1.81}

* * *

System: LXRa homodimer (NR concentration 270 nM)
Assay: PBM binding z-score (relative to random genomic background probes); higher = stronger binding; sequences stand for … in GC…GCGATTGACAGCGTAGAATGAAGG
Respond with True for PBM binding z-score values of 0.1 and above, False for values below.

{"macromolecule.sequence": "CCTACTGGGCCACGAAAGGTCATTGTTTCAGTGA", "discrete.label": "True"}
{"macromolecule.sequence": "TTACCATGGTGAAAGGTCGTTGATGCACGCCTTG", "discrete.label": "True"}
{"macromolecule.sequence": "CCGACTGGGGCGAAGGTTACCATACTCAGTACGA", "discrete.label": "False"}
{"macromolecule.sequence": "AGAACGAGGGCAATGAGATGATAGCACGGGTGGC", "discrete.label": "False"}
{"macromolecule.sequence": "AATACAGGGTCATCGTGGGCCAGAGTACGCACAG", "discrete.label": "True"}
{"macromolecule.sequence": "TCTGCTAGGTCAACGATCGTCAGCTAATCTGCTA", "discrete.label": "False"}
{"macromolecule.sequence": "CCGACTGGGGCAAAGGTTAACATACTCAGTACGA", "discrete.label": "True"}
{"macromolecule.sequence": "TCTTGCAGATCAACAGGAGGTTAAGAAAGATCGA", "discrete.label": "False"}
{"macromolecule.sequence": "CCTTACGGGTCACGAGGTTATAGCGCGACGAGCG", "discrete.label": "True"}
{"macromolecule.sequence": "GCTAGTTGGTCAGTAGAAGGTCACACACCGGTCG", "discrete.label": "True"}
{"macromolecule.sequence": "CTTGAAAGGTCGGTTGAGGTGAGTATACGGATAA", "discrete.label": "False"}
{"macromolecule.sequence": "CGAACGAGGGCATGAGTTGATAACAAATGCCGAT", "discrete.label": "False"}
{"macromolecule.sequence": "CATCGGAGGACAACAGGAGGTCAGAGCTGCCAGA", "discrete.label": "True"}
{"macromolecule.sequence": "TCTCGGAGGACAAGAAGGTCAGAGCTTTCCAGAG", "discrete.label": "True"}

* * *

System: PPARg homodimer (NR concentration 180 nM)
Test: PBM binding z-score (relative to random genomic background probes); higher = stronger binding; sequences stand for … in GC…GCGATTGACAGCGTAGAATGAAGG
outcome.measure: PBM binding z-score

{"macromolecule.sequence": "CCGAGTAGGTTATGGGGAATTCAGGCAACGGTGA", "test.system": "PPARg homodimer (NR concentration 180 nM)", "measured.value": 1.64}
{"macromolecule.sequence": "TCTCGGAGGATACGAAAGGTCAGAGCTCGACATC", "test.system": "PPARg homodimer (NR concentration 180 nM)", "measured.value": 2.71}
{"macromolecule.sequence": "AGAATGAGGTTATACGTAGATCAGGAAAGAAAGT", "test.system": "PPARg homodimer (NR concentration 180 nM)", "measured.value": 0.606}
{"macromolecule.sequence": "CCGCCTGGGGCAGAAAGGTTACCATACCATCCGG", "test.system": "PPARg homodimer (NR concentration 180 nM)", "measured.value": 0.297}
{"macromolecule.sequence": "CCTAGTTGGTCAAGGTTACACACGCTATAGGTAC", "test.system": "PPARg homodimer (NR concentration 180 nM)", "measured.value": 2.04}
{"macromolecule.sequence": "CGAACTAGGTCATTGACAGGACAGTGACTAGTAA", "test.system": "PPARg homodimer (NR concentration 180 nM)", "measured.value": 0.886}
{"macromolecule.sequence": "TTAATGAGGTTAAAGATCAGGGAACGTGGCGTCG", "test.system": "PPARg homodimer (NR concentration 180 nM)", "measured.value": 1.89}
{"macromolecule.sequence": "AGAACGAGGGCACGCTGAGTTGATCGCAGAGTAG", "test.system": "PPARg homodimer (NR concentration 180 nM)", "measured.value": -0.239}
{"macromolecule.sequence": "CCGAGTAGGTTATGGGGCATTCAGGCAACGGTGA", "test.system": "PPARg homodimer (NR concentration 180 nM)", "measured.value": 0.874}
{"macromolecule.sequence": "TCACATAGGTAAACAGGTGAAAGTCCGTAAGTTA", "test.system": "PPARg homodimer (NR concentration 180 nM)", "measured.value": 1.1}
{"macromolecule.sequence": "CCAGACATGTGAGAAGGTAACTCAGCCTCGATTA", "test.system": "PPARg homodimer (NR concentration 180 nM)", "measured.value": 0.72}
{"macromolecule.sequence": "CGTCCAAGGTCAGCAGTTCAGTGAAAGCGACGTG", "test.system": "PPARg homodimer (NR concentration 180 nM)", "measured.value": 1.67}
{"macromolecule.sequence": "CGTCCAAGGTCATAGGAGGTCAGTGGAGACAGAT", "test.system": "PPARg homodimer (NR concentration 180 nM)", "measured.value": 7.55}
{"macromolecule.sequence": "TCTGCTAGGTCAACGATGGTCAGCTGATCTGCTA", "test.system": "PPARg homodimer (NR concentration 180 nM)", "measured.value": 0.984}
{"macromolecule.sequence": "ATCTCTAGGTAACGATAGTTCAGTGAATGCAAAT", "test.system": "PPARg homodimer (NR concentration 180 nM)", "measured.value": 0.431}

Data provenance: the supplement of paper PMC6555819
